molecular target: MK-2 (Homo sapiens); assay: Determination of MK-2 IC50 (phosphorylation of HSP-peptide, anion exchange resin capture assay); assay type: biochemical; conditions: additional values are replicate IC50 experiments; mixture of stereoisomers implied unless otherwise noted; read-out: MK-2 Avg. IC50
Sequence (P49137 whole entry, species assumed): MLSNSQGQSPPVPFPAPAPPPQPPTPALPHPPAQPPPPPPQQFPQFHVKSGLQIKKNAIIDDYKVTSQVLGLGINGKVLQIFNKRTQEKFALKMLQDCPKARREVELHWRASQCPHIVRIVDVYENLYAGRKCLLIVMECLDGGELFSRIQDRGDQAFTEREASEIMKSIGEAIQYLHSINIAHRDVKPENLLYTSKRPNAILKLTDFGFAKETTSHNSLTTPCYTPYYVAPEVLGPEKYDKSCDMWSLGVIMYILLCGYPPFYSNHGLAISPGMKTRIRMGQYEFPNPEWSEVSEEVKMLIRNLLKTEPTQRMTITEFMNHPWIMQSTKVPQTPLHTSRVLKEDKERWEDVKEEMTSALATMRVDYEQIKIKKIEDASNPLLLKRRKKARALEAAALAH
pIC50: −log10 of the molar value. Counter-ions that a name gives are not always drawn.
quantity: pIC50

See these solved cases before continuing.
> print(dat)
                                   compound  quantity  reported
1  COc1ccc2[nH]c3c(c2c1)CCNC3(Cc1ccccc1)C(=O)O (stereo not drawn) [Example 241, hydrochloride]     pIC50    < 3.70
2  COc1ccc2[nH]c3c(c2c1)CC(Cc1ccccc1)NC3C(=O)O (stereo not drawn)     pIC50    < 3.70
3  COc1ccc2[nH]c3c(c2c1)CCNC3[C@H](O)CO (stereo partly drawn) [Example 239, trifluoroacetate]     pIC50    < 3.70
4  COc1ccc2[nH]c3c(c2c1)CCNC3(C)C(=O)O (stereo not drawn) [Example 237, hydrochloride]     pIC50    < 3.70

INPUT: Please indicate pIC50 recorded for CCCC1CNC(C(=O)OC)c2[nH]c3ccc(OC)cc3c21 (stereo not drawn)
OUTPUT: < 3.70

INPUT: Please indicate pIC50 recorded for O/N=C1\CCCc2c1[nH]c1ccc(I)cc21
OUTPUT: 4.77
